src = ChEMBL document CHEMBL5058577

test system: Fibroblast; experiment: Multiplex assay against human fibroblast; type: toxicity, cell-based; details: 24 h, 1 µM, compound concentration 1 uM, replicate 2
Catalogue of compounds with associated Population Tubulin-Different-Phenotype (%)
The reply should contain only the number, in %.

Query block: Identify measured Population Tubulin-Different-Phenotype (%) associated with C[C@H](NC(=O)c1c(C(F)F)nn(C)c1Oc1cccc(C(F)(F)F)c1)c1ccc(C(=O)O)cc1
Result block: 51

Query block: Identify measured Population Tubulin-Different-Phenotype (%) associated with CN1CCN(c2nc3cc(C(F)(F)F)ccc3n3cccc23)CC1.O=C(O)/C=C\C(=O)O.O=C(O)/C=C\C(=O)O
Result block: 43

Query block: Identify measured Population Tubulin-Different-Phenotype (%) associated with Cc1nc2ccc(Oc3ccc(F)cc3)cc2c(=O)n1C[C@H]1CCCN(C(C)C)C1.Cl
Result block: 73

Query block: Identify measured Population Tubulin-Different-Phenotype (%) associated with Cc1ccc(/C(=C\CN2CCCC2)c2ccccn2)cc1
Result block: 64

Query block: Identify measured Population Tubulin-Different-Phenotype (%) associated with O=S(=O)(c1ccccc1)c1cnc2c(N3CCNCC3)cccc2c1 [INTEPIRDINE]
Result block: 59

Query block: Identify measured Population Tubulin-Different-Phenotype (%) associated with COc1cc(NC(=O)CCN2CCC(OC(=O)Nc3ccccc3-c3ccccc3)CC2)c(Cl)cc1CNC[C@H](O)c1ccc(O)c2[nH]c(=O)ccc12
Result block: 57

Query block: Identify measured Population Tubulin-Different-Phenotype (%) associated with O=C(O)c1cc2ccccc2c(Cc2c(O)c(C(=O)O)cc3ccccc23)c1O
Result block: 39

Query block: Identify measured Population Tubulin-Different-Phenotype (%) associated with CC1(COc2ccc3c(c2)ncn3-c2ccc3cccc(N4CCC(N)CC4)c3n2)COC1
Result block: 63

Query block: Identify measured Population Tubulin-Different-Phenotype (%) associated with Cc1ccc(C(C)(O)c2nc3ccccc3s2)c(C)c1 (stereo unspecified)
Result block: 43

Query block: Identify measured Population Tubulin-Different-Phenotype (%) associated with c1cc(OCCCN2CCCCC2)ccc1CN1CCCCC1
Result block: 55

Query block: Identify measured Population Tubulin-Different-Phenotype (%) associated with CCCN1CCC[C@@H]2Cc3n[nH]cc3C[C@H]21.Cl [QUINPIROLE HYDROCHLORIDE]
Result block: 41

Query block: Identify measured Population Tubulin-Different-Phenotype (%) associated with O=C1COc2nccc(-c3ccccc3F)c2CN1Cc1cc(C(F)(F)F)cc(C(F)(F)F)c1
Result block: 39

Query block: Identify measured Population Tubulin-Different-Phenotype (%) associated with CC(=O)NCCc1c(Cc2ccccc2)[nH]c2ccccc12
Result block: 50

Query block: Identify measured Population Tubulin-Different-Phenotype (%) associated with Cc1ccccc1C(=O)Nc1ccc(C(=O)N2CCCC(N(C)C)c3ccccc32)cc1.Cl (stereo unspecified)
Result block: 50

Query block: Identify measured Population Tubulin-Different-Phenotype (%) associated with O=C(NCCO)c1cccc(-c2cc(Nc3ccc(OC(F)(F)F)cc3)ncn2)c1
Result block: 42

Query block: Identify measured Population Tubulin-Different-Phenotype (%) associated with C[C@@H]1C[C@H]2[C@@H]3CCC4=CC(=O)C=C[C@]4(C)[C@@]3(F)[C@@H](O)C[C@]2(C)[C@@]1(O)C(=O)CO
Result block: 53

Query block: Identify measured Population Tubulin-Different-Phenotype (%) associated with CC[C@H]1OC(=O)[C@H](C)[C@@H](O[C@H]2C[C@@](C)(OC)[C@@H](O)[C@H](C)O2)[C@H](C)[C@@H](O[C@@H]2O[C@H](C)C[C@H](N(C)C)[C@H]2O)[C@@]2(C)CC(C)=C(O2)[C@H](C)[C@@H](O)[C@]1(C)O
Result block: 36

Query block: Identify measured Population Tubulin-Different-Phenotype (%) associated with CN(C)CCCc1cc(C(=O)Nc2ccc(-c3ccncc3)cc2)ccc1O.Cl.Cl
Result block: 45

Query block: Identify measured Population Tubulin-Different-Phenotype (%) associated with CCCC(CCC)C(=O)O
Result block: 54

Query block: Identify measured Population Tubulin-Different-Phenotype (%) associated with CCNC1(C(N)=O)CCN(c2ncnc3c2nc(-c2ccccc2Cl)n3-c2ccc(Cl)cc2)CC1
Result block: 57

Query block: Identify measured Population Tubulin-Different-Phenotype (%) associated with CCOc1c2c(c(OCC)c3ncccc13)CN(c1ccc(CS(=O)(=O)NC(=O)Cc3ccccc3OC)cc1C)C2=O
Result block: 69

Query block: Identify measured Population Tubulin-Different-Phenotype (%) associated with COc1c(C)cc(NC(=O)c2nn(Cc3ccc(F)cc3)c3c2CN(C(=O)c2ccc[nH]2)C[C@]3(C)C(N)=O)cc1C
Result block: 67

* * *

system: U2OS; assay: Multiplex assay against U2OS; assay type: toxicity, cell-based; conditions: human, 48 h, 1 µM, compound concentration 1 uM, replicate 2
Label condition met when Population Healthy Nuclei (%) is strictly below 70%; otherwise label condition not met.

Solved cases (3 shown):
1) Cc1ccc(F)cc1C(=O)Nc1ccc(C(=O)N2Cc3cccn3Cc3ccccc32)c(Cl)c1 ... condition not met
2) Oc1c(CN2CCN(c3ccccn3)CC2)cc(Cl)c2cccnc12 ... condition not met
3) CC1(COc2ccc3c(c2)ncn3-c2ccc3cccc(N4CCC(N)CC4)c3n2)COC1 ... condition met

Query block: In plain terms, does O=C(NCC(=O)N1CC[C@H](N[C@H]2CC[C@@](O)(c3ccc(-c4ncccn4)cn3)CC2)C1)c1cccc(C(F)(F)F)c1 come in under 70% for Population Healthy Nuclei (%)?
Result block: condition not met

Query block: In plain terms, does O=C(NCCO)c1cccc(-c2cc(Nc3ccc(OC(F)(F)F)cc3)ncn2)c1 come in under 70% for Population Healthy Nuclei (%)?
Result block: condition met

Query block: In plain terms, does Cl.Clc1ccc2nsnc2c1NC1=NCCN1 [TIZANIDINE HYDROCHLORIDE] come in under 70% for Population Healthy Nuclei (%)?
Result block: condition not met

* * *

Catalogue of compounds with associated Population Normal (%)
tested on: Fibroblast; test: Multiplex assay against human fibroblast; type: toxicity, cell-based; conditions: 12 h, 10 µM, compound concentration 10 uM, replicate 1
The reply should contain only the number, in %.

1. COc1ccc2c(c1)C(C(=O)N(Cc1ccc(N(C)C)cc1)c1ccc(C(C)C)cc1)CCC2.Cl (stereo unspecified) ... 98

Query block: Write down the reported Population Normal (%) (system: Fibroblast) of Cc1ccc(F)cc1C(=O)Nc1ccc(C(=O)N2Cc3cccn3Cc3ccccc32)c(Cl)c1 [LIXIVAPTAN]
Result block: 99

Query block: Write down the reported Population Normal (%) (system: Fibroblast) of Cc1ccc(/C(=C\CN2CCCC2)c2ccccn2)cc1 [TRIPROLIDINE]
Result block: 97

Query block: Write down the reported Population Normal (%) (system: Fibroblast) of Oc1c(CN2CCN(c3ccccn3)CC2)cc(Cl)c2cccnc12
Result block: 94

Query block: Write down the reported Population Normal (%) (system: Fibroblast) of Cc1nc2ccc(Oc3ccc(F)cc3)cc2c(=O)n1C[C@H]1CCCN(C(C)C)C1.Cl
Result block: 95

Query block: Write down the reported Population Normal (%) (system: Fibroblast) of N[C@@]1(C(=O)O)CO[C@H]2[C@H](C(=O)O)[C@H]21 [LY-379268]
Result block: 96

Query block: Write down the reported Population Normal (%) (system: Fibroblast) of C[C@H](NC(=O)c1c(C(F)F)nn(C)c1Oc1cccc(C(F)(F)F)c1)c1ccc(C(=O)O)cc1 [PALUPIPRANT]
Result block: 97

* * *

Catalogue of molecules with associated Population Healthy Nuclei (%)
tested on: U2OS; assay: Multiplex assay against U2OS; format: toxicity, cell-based; conditions: human, 24 h, 10 µM, compound concentration 10 uM, replicate 1
The reply should contain only the number, in %.

Known Population Healthy Nuclei (%) results, listed for orientation:
1) Cc1ccc(C(C)(O)c2nc3ccccc3s2)c(C)c1 (stereo unspecified) ... 71
2) O=C(NCCO)c1cccc(-c2cc(Nc3ccc(OC(F)(F)F)cc3)ncn2)c1 ... 64
3) CC1(COc2ccc3c(c2)ncn3-c2ccc3cccc(N4CCC(N)CC4)c3n2)COC1 ... 8

Query block: Identify measured Population Healthy Nuclei (%) associated with Cc1ccccc1C(=O)Nc1ccc(C(=O)N2CCCC(N(C)C)c3ccccc32)cc1.Cl (stereo unspecified)
Result block: 51

Query block: Identify measured Population Healthy Nuclei (%) associated with CC[C@H]1OC(=O)[C@H](C)[C@@H](O[C@H]2C[C@@](C)(OC)[C@@H](O)[C@H](C)O2)[C@H](C)[C@@H](O[C@@H]2O[C@H](C)C[C@H](N(C)C)[C@H]2O)[C@@]2(C)CC(C)=C(O2)[C@H](C)[C@@H](O)[C@]1(C)O
Result block: 36

Query block: Identify measured Population Healthy Nuclei (%) associated with O=C(NCC(=O)N1CC[C@H](N[C@H]2CC[C@@](O)(c3ccc(-c4ncccn4)cn3)CC2)C1)c1cccc(C(F)(F)F)c1
Result block: 62

Query block: Identify measured Population Healthy Nuclei (%) associated with Cc1ccc(-c2ccc(F)cc2COc2ccc(CCC(=O)O)cc2)cc1
Result block: 67

Query block: Identify measured Population Healthy Nuclei (%) associated with O=S(=O)(c1ccccc1)c1cnc2c(N3CCNCC3)cccc2c1 [INTEPIRDINE]
Result block: 60

Query block: Identify measured Population Healthy Nuclei (%) associated with CC(C)(C)c1ccc(S(=O)(=O)Nc2ccc(Cl)cc2C(=O)c2cc[n+]([O-])cc2)cc1
Result block: 72

Query block: Identify measured Population Healthy Nuclei (%) associated with COc1cc(NC(=O)CCN2CCC(OC(=O)Nc3ccccc3-c3ccccc3)CC2)c(Cl)cc1CNC[C@H](O)c1ccc(O)c2[nH]c(=O)ccc12
Result block: 38
